Catalogue of Ki values
assayed target: Protease (Human immunodeficiency virus 1)
test details: Inhibition of HIV1 protease by Dixon method

# count of solved cases: 3
>>> val("O=C1N[C@H](Cc2ccccc2)C([O-])[N+]2(CCCCC2)N1Cc1ccccc1 (some centres undefined)")
"454 µM"
>>> val("CC(C)[C@H](N)C(=O)N[C@]1(Cc2ccccc2)CC[N+]2(CCC[C@H]2C(=O)NC(C)(C)C)C1[O-] (some centres undefined)")
"577 µM"
>>> val("O=C1N[C@@H](Cc2ccccc2)C([O-])[N+]2(CCCCC2)N1Cc1ccccc1 (some centres undefined)")
"34.8 µM"

Protease (Human immunodeficiency virus 1) / Ki / CC(C)[C@H](N)C(=O)N[C@]1(Cc2ccccc2)CC[N+]2(CCC[C@H]2C(=O)NC(=O)[C@@H](NC(C)(C)C)C(C)C)C1[O-] (some centres undefined) : value?
96 µM

* * *

Each item that follows carries a reported pKi.
assayed target: Protease (Human immunodeficiency virus 1, UniProt Q9YQ12)
Sequence (Q9YQ12 whole entry): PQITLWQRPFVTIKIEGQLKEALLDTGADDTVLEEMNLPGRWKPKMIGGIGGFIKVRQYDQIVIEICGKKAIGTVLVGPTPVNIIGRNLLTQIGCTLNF
test details: Inhibition of HIV1 protease by Dixon method
Quick note: pKi values are minus log10 of concentrations in mol/L.

>>> val("CC[C@H](C)[C@H](NC(=O)[C@@H](NC(C)(C)C)C(C)C)C(=O)NC(=O)[C@@H]1CCC[N+]12C([O-])[C@H](Cc1ccccc1)NC(=O)N2Cc1ccccc1 (stereo partly drawn)")
3.86
>>> val("CC(C)[C@H](NC(C)(C)C)C(=O)NC(=O)[C@@H]1CCC[N+]12C([O-])[C@H](Cc1ccccc1)NC(=O)N2Cc1ccccc1 (stereo partly drawn)")
3.54

API: the following record is the query input.
Using the record for CC(C)(C)NC(=O)[C@@H]1CCC[N+]12C([O-])[C@H](Cc1ccccc1)NC(=O)N2Cc1ccccc1 (stereo partly drawn) , report its pKi.
4.36

* * *

The reader will find reported Ki values listed item by item below.
assayed target: Protease (Human immunodeficiency virus 1)
test details: Inhibition of HIV1 protease by Hanes method
Give the value, in units of µM, as a plain number.

>>> val("CC[C@H](C)[C@H](NC(=O)[C@@H](NC(C)(C)C)C(C)C)C(=O)NC(=O)[C@@H]1CCC[N+]12C([O-])[C@H](Cc1ccccc1)NC(=O)N2Cc1ccccc1 (some centres undefined)")
149
>>> val("O=C1N[C@@H](Cc2ccccc2)C([O-])[N+]2(CCCCC2)N1Cc1ccccc1 (some centres undefined)")
26.2
>>> val("CC(C)[C@H](N)C(=O)N[C@]1(Cc2ccccc2)CC[N+]2(CCC[C@H]2C(=O)NC(C)(C)C)C1[O-] (some centres undefined)")
618

Recorded Ki for CC(C)[C@H](N)C(=O)N[C@]1(Cc2ccccc2)CC[N+]2(CCC[C@H]2C(=O)NC(=O)[C@@H](NC(C)(C)C)C(C)C)C1[O-] (some centres undefined) , please?
96

* * *

Reported Ki is given for each of the following compounds.
assayed target: Protease (Human immunodeficiency virus 1)
test details: Inhibition of HIV1 protease by Hanes method
Just the number please, in µM, no unit attached.

Look over these answered cases.
>>> val("O=C1N[C@H](Cc2ccccc2)C([O-])[N+]2(CCCCC2)N1Cc1ccccc1 (stereo partly drawn)")
461
>>> val("CC(C)(C)NC(=O)[C@@H]1CCC[N+]12C([O-])[C@H](Cc1ccccc1)NC(=O)N2Cc1ccccc1 (stereo partly drawn)")
34.3

Turning now to a further compound:
Quick check: Ki of CC(C)[C@H](NC(C)(C)C)C(=O)NC(=O)[C@@H]1CCC[N+]12C([O-])[C@H](Cc1ccccc1)NC(=O)N2Cc1ccccc1 (stereo partly drawn) ?
292

Reference source: ChEMBL document CHEMBL1136876
